These data points were gathered from ChEMBL document CHEMBL1126756.

Target: UniProtKB P30547
Experiment: Tested for inhibition against [3H]-SP (substance P) (1 nM) binding to NK1 receptor in guinea pig lung membranes
pIC50: −log10 of the molar value.
reported endpoint: pIC50

[[record]]
compound = "CC(=O)NC(C(=O)NCCCC(NC(=O)c1c[nH]c2ccccc12)C(=O)N[C@H](Cc1ccccc1)C(=O)N(C)Cc1ccccc1)[C@@H](C)O (stereo not given in full)"
reported_endpoint = "pIC50"
value = 7.68

[[record]]
compound = "CC(=O)N[C@H](C(=O)NCCCC[C@H](NC(=O)c1c[nH]c2ccccc12)C(=O)N[C@H](Cc1ccccc1)C(=O)N(C)Cc1ccccc1)[C@@H](C)O"
reported_endpoint = "pIC50"
value = 7.89

[[record]]
compound = "C[C@@H](O)C(NC(=O)CC(NC(=O)c1c[nH]c2ccccc12)C(=O)N[C@H](Cc1ccccc1)C(=O)N(C)Cc1ccccc1)C(N)=O (stereo not given in full)"
reported_endpoint = "pIC50"
value = 7.64

[[record]]
compound = "CC(=O)NC(C(=O)NCCCCC(NC(=O)c1cc2ccccc2[nH]1)C(=O)N[C@H](Cc1ccccc1)C(=O)N(C)Cc1ccccc1)[C@@H](C)O (stereo not given in full)"
reported_endpoint = "pIC50"
value = 7.72

[[record]]
compound = "C[C@@H](O)C(NC(=O)CC(NC(=O)c1cc2ccccc2[nH]1)C(=O)N[C@H](Cc1ccccc1)C(=O)N(C)Cc1ccccc1)C(N)=O (stereo not given in full)"
reported_endpoint = "pIC50"
value = 7.27


====

Target: UniProt P30547
Test: Tested for percent inhibition against [3H]SP (substance P) binding against NK1 receptor relative to compound 7 at 100 ng/mL; No inhibition
Calls of active or inactive are those of the source. The rule behind the calls is not given here.
reported endpoint: inhibition

[[record]]
compound = "CC(=O)NC(C(=O)NCCCCC(NC(=O)OC(C)(C)C)C(=O)N[C@H](Cc1ccccc1)C(=O)N(C)Cc1ccccc1)C(C)O (stereo not given in full)"
target_or_test_system = "UniProt P30547"
value = "inactive"

[[record]]
compound = "CC(=O)NC(CCCCNC(=O)C(NC(C)=O)C(C)O)C(=O)N[C@H](Cc1ccccc1)C(=O)N(C)Cc1ccccc1 (stereo not given in full)"
target_or_test_system = "UniProt P30547"
value = "inactive"

[[record]]
compound = "CC(=O)N[C@H](C(=O)NCCCC[C@@H](NC(=O)c1c[nH]c2ccccc12)C(=O)N[C@H](Cc1ccccc1)C(=O)N(C)Cc1ccccc1)[C@@H](C)O"
target_or_test_system = "UniProt P30547"
value = "inactive"

[[record]]
compound = "CC(=O)NC(C(=O)NCCCCC(N)C(=O)N[C@H](Cc1ccccc1)C(=O)N(C)Cc1ccccc1)C(C)O (stereo not given in full)"
target_or_test_system = "UniProt P30547"
value = "inactive"

[[record]]
compound = "CC(=O)NC(C(=O)NCCCCC(NC(=O)c1ccccc1)C(=O)N[C@H](Cc1ccccc1)C(=O)N(C)Cc1ccccc1)C(C)O (stereo not given in full)"
target_or_test_system = "UniProt P30547"
value = "inactive"


====

Biological target: Substance-P receptor (Cavia porcellus)
Sequence (P30547 whole entry): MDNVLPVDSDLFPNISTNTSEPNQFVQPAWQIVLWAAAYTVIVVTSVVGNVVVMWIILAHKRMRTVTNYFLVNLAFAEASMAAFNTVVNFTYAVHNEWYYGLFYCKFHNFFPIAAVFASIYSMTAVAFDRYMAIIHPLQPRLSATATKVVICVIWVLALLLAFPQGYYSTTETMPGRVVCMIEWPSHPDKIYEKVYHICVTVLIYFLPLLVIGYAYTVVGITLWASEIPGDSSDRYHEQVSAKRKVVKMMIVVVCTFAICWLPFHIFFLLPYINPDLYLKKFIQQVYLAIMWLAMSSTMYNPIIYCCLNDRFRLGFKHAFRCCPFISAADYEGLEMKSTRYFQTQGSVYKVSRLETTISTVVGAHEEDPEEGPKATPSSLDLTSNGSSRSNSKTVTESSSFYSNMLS
Assay: Tested for percent inhibition against [3H]SP (substance P) binding against NK1 receptor relative to compound 5 (100)
Conditions: concentration not given here
Recorded inhibition by entry
reported endpoint: inhibition

[[record]]
compound = "CN(Cc1ccccc1)C(=O)[C@@H](Cc1ccccc1)NC(=O)C(CC(=O)NCC(N)=O)NC(=O)c1c[nH]c2ccccc12 (some centres undefined)"
reported_endpoint = "inhibition"
value = "128%"

[[record]]
compound = "CN(Cc1ccccc1)C(=O)[C@@H](Cc1ccccc1)NC(=O)C(CC(=O)NC(CCC(N)=O)C(N)=O)NC(=O)c1c[nH]c2ccccc12 (some centres undefined)"
reported_endpoint = "inhibition"
value = "56%"

[[record]]
compound = "CN(Cc1ccccc1)C(=O)[C@@H](Cc1ccccc1)NC(=O)C(CC(=O)NC(CCC(N)=O)C(=O)NC(C)(C)C)NC(=O)c1c[nH]c2ccccc12 (some centres undefined)"
reported_endpoint = "inhibition"
value = "96%"

[[record]]
compound = "CN(Cc1ccccc1)C(=O)[C@@H](Cc1ccccc1)NC(=O)C(CC(=O)NC(CO)C(N)=O)NC(=O)c1c[nH]c2ccccc12 (some centres undefined)"
reported_endpoint = "inhibition"
value = "100%"


====

Molecular target: Substance-P receptor (Cavia porcellus)
Experiment: Percent inhibition of [3H]-SP (substance P) binding to NK1 receptor relative to compound 7 (100)
Parameters: concentration or dose not given beside the values
Settings: concentration not given here
reported endpoint: inhibition

[[record]]
compound = "CN(Cc1ccccc1)C(=O)[C@@H](Cc1ccccc1)NC(=O)C(CCCCNC(=O)OCc1ccccc1)NC(=O)c1cc2ccccc2[nH]1 (some centres undefined)"
value = "22%"

[[record]]
compound = "CN(Cc1ccccc1)C(=O)[C@@H](Cc1ccccc1)NC(=O)C(CCCCN)NC(=O)c1c[nH]c2ccccc12 (some centres undefined)"
value = "91%"

[[record]]
compound = "CC(=O)NC(CO)C(=O)NCCCCC(NC(=O)c1c[nH]c2ccccc12)C(=O)N[C@H](Cc1ccccc1)C(=O)N(C)Cc1ccccc1 (some centres undefined)"
value = "136%"

[[record]]
compound = "CN(Cc1ccccc1)C(=O)[C@@H](Cc1ccccc1)NC(=O)C(CCCCNC(=O)N1CCOCC1)NC(=O)c1c[nH]c2ccccc12 (some centres undefined)"
value = "53%"

